Below: a set of entries, each annotated with reported % Ctrl, RET(V804M).
- system-name: kinases (Homo sapiens, UniProt P07949, V804M)
- Construct: purchased Eurofins/DiscoveRx; host or cells: E. coli BL21-derived host (T7 phage display) for most kinases; HEK-293 for the rest
- Sequence (P07949 29-1114 V804M): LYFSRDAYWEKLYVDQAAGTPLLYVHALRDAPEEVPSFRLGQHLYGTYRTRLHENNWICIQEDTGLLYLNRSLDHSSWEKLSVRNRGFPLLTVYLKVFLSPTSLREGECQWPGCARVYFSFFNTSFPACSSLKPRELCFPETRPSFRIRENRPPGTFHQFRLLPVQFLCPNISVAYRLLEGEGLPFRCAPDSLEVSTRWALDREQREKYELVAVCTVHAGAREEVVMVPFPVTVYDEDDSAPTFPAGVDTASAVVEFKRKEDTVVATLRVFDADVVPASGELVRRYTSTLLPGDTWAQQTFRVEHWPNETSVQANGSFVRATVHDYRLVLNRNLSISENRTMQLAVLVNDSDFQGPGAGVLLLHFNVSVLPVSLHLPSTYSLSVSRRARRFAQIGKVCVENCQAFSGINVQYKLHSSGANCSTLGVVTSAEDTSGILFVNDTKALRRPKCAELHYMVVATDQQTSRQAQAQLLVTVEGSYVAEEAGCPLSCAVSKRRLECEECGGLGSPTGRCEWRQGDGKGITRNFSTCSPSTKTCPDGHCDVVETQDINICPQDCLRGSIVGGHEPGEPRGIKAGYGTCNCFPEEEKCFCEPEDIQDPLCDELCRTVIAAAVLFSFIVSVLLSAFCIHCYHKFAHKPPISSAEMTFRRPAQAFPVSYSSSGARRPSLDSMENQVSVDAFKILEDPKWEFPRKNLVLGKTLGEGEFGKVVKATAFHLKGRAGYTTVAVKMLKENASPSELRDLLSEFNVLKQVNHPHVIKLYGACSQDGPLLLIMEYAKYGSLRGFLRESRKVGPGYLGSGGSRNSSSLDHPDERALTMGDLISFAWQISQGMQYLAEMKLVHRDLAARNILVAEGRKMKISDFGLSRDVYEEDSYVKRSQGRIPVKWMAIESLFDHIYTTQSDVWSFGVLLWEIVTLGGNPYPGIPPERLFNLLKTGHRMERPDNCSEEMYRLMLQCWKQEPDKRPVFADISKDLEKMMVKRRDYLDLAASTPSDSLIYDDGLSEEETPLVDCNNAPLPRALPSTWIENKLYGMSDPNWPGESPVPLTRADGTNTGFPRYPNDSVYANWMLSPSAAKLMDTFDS
- measurement-notes: KINOMEscan kinase binding assay (Eurofins/DiscoveRx), % Ctrl
- measurement-context: 1 μM; RET(V804M)
Reply with just the number (in % Ctrl).

smiles-representation: Cc1cc2c([nH]1)/C=C1\C(=O)Nc3ccc(nc31)-c1ccccc1OCCCNC2=O
% Ctrl, RET(V804M) [% Ctrl]: 93
--
smiles-representation: Cc1cc2c([nH]1)/C=C1\C(=O)Nc3cnc(cc31)-c1cnn(C)c1COCCNC2=O
% Ctrl, RET(V804M) [% Ctrl]: 99
--
smiles-representation: Cc1cc2c([nH]1)/C=C1\C(=O)Nc3cc(Cl)c(cc31)OCCO[C@@H](C(=O)NC1CNC1)CN(C)C2=O
% Ctrl, RET(V804M) [% Ctrl]: 69
--
smiles-representation: Cc1cc2c([nH]1)/C=C1\C(=O)Nc3ccc(cc31)-c1c(noc1C)COCCN(C)C2=O
% Ctrl, RET(V804M) [% Ctrl]: 55
--
smiles-representation: Cc1cc2c([nH]1)/C=C1\C(=O)Nc3cc(Cl)c(cc31)OCCO[C@@H](C(=O)NC1CCNCC1)CN(C)C2=O
% Ctrl, RET(V804M) [% Ctrl]: 81
--
smiles-representation: Cc1cc2c([nH]1)/C=C1\C(=O)Nc3cc(Cl)c(cc31)OCCO[C@@H](C(=O)N(C)C)CN(C)C2=O
% Ctrl, RET(V804M) [% Ctrl]: 57

Query: % Ctrl, RET(V804M); subject: Cc1cc2c([nH]1)/C=C1\C(=O)Nc3ccc(cc31)-c1ccnn1CCNCCNC2=O 97

Query: % Ctrl, RET(V804M); subject: CNC(=O)[C@H]1CN(C)C(=O)c2cc(C)[nH]c2/C=C2\C(=O)Nc3cc(Cl)c(cc32)OCCO1 77

Query: % Ctrl, RET(V804M); subject: Cc1cc2c([nH]1)/C=C1\C(=O)Nc3ccc(cc31)-c1ccnn1CCOCCNC2=O 94

Query: % Ctrl, RET(V804M); subject: Cc1cc2c([nH]1)/C=C1\C(=O)Nc3ccc(cc31)O[C@@H](C)COCCN(C)C2=O 43

Query: % Ctrl, RET(V804M); subject: Cc1cc2c([nH]1)/C=C1\C(=O)Nc3ccc(cc31)-c1ccnn1CCOCCN(C)C2=O 19
